Test system: HCC-2998 colon
protocol: NCI tumour cell line growth inhibition, 48 h
observable: TGI

Known results for compounds:
O=C1/C(=C/c2ccccc2[N+](=O)[O-])Cc2ccccc21 = 3.14 µM
CC1(/C=C/CCSc2ccccc2)CC(=O)C2CC1C2(C)C (stereo not given) = > 73.5 µM
Cc1cccc(C)c1NC(=O)/C(=N/NC(N)=S)C(C)C(=O)c1ccc(Cl)cc1 (stereo not given) = > 100 µM
COc1c(Br)cc2c(c1OC)C(Br)CCC(Br)(Br)C2=O (stereo not given) = 16.6 µM

[Q] Identify the measured TGI of `Cc1ccc(NC(Nc2ccc(C)cc2C)=C(/C=C(\Cl)[N+](=O)[O-])[N+](=O)[O-])c(C)c1` for HCC-2998 colon.
[A] 38.4 µM

[Q] Query the reported TGI for HCC-2998 colon; item: COc1cc2c(cc1C1COc3cc4occc4cc3C1=O)OCO2 (stereo not given)
[A] > 100 µM

[Q] Form entry - test system: HCC-2998 colon; read-out: TGI; compound: `COc1ccc2cc1Oc1ccc(cc1)C[C@H]1c3c(cc4c(c3Oc3cc5c(cc3OC)CCN(C)[C@@H]5C2)OCO4)CCN1C`
[A] 8.26 µM

---

Tested on: ACHN renal
protocol: NCI tumour cell line growth inhibition, 48 h
observable: TGI (µM)
A number alone suffices; assume µM.

See these solved cases before continuing.
O=C(c1ccccc1)c1ccc2nc(-c3c(Cl)c(Cl)c(Cl)c(Cl)c3C(=O)N/N=C/c3ccc(Cl)cc3)[nH]c2c1 = 65.7
CS(=O)(=O)OCC1CN(S(C)(=O)=O)c2cc(O)ccc21 (stereo not given) = 15.1

[Q] Please look up its TGI: `Cc1cc(S(=O)(=O)/N=C(/N)Nc2ccccc2O)c(SCc2ccccc2)cc1Cl`
[A] 27.4

---

Reported GI50 values for a set of compounds
System: EKVX NSCLC
protocol: NCI tumour cell line growth inhibition, 48 h

[Q] Give the measured GI50 of `CCOc1ccccc1C(=O)N1CCN(c2cc(Cl)cc(Cl)c2)CC1` .
[A] 0.0587 µM

[Q] Which GI50 reading was recorded for the compound `O=C1c2c(c3c4ccccc4[nH]c3c3ccc4ccccc4c23)C(=O)N1CCN1CCNCC1` ?
[A] 1.59 µM

[Q] Look at this compound and give its reported GI50. `COc1ccc(-c2[nH]c3ccccc3c2-c2ccc(OC)cc2)cc1`
[A] 5.05 µM

[Q] Data request, read-out GI50, for `O=[N+]([O-])c1ccc(C=Cc2ccccc2)cc1.[C-]#[O+].[C-]#[O+].[C-]#[O+].[Cr]`
[A] 2.93 µM

[Q] Item under review: `O=C(Nc1ccc(OCc2nnc(-c3ccc(Cl)cc3)o2)c(F)c1)Nc1ccc(Cl)c(C(F)(F)F)c1` . Reported GI50?
[A] 2.64 µM

[Q] Find the recorded GI50 belonging to `Cc1ccc(/C=N\NC(=O)c2[nH]c3ccc(F)cc3c2-c2ccccc2)cc1` and report it.
[A] 0.0691 µM

---

Catalogue of TGI values
Tested on: OVCAR-8 ovarian
protocol: NCI tumour cell line growth inhibition, 48 h

O=S(=O)(c1ccc(Cl)cc1)C(Cl)(Cl)Cl = 35.5 µM
CN1c2ccccc2C(=O)NC12CCN(CCCC(=O)c1ccc(F)cc1)CC2 = > 100 µM
C[N+](C)(C)CCc1ccccc1 = > 100 µM
O=C1OCC2OC(=O)c3cc(O)c(O)c(O)c3-c3c(O)c(O)c(O)c4c3C(=O)OC(C2OC(=O)c2cc(O)c(O)c(O)c2-c2c1cc(O)c(O)c2O)C1OC(=O)c2c-4c(O)c(O)c(O)c2[C@@H]1C(O)C(O)C(O)C(O)CO (stereo partly specified) = 44.1 µM
COc1cc(C2SCC(=O)N2c2cccc(Cl)c2)cc(OC)c1OC (stereo unspecified) = > 100 µM
Cn1c(=O)c2c(nc3n2CC(=O)N3CCCCl)n(C)c1=O = > 100 µM

[Q] TGI lookup needed for CCCNC(=O)C(C)C1CCC2(C)C=CC(=O)C(C)=C2C1O (stereo unspecified) , thanks.
[A] > 100 µM

[Q] Record request: TGI value, item CS(=O)(=O)OCC1CN(S(C)(=O)=O)c2cc(O)ccc21 (stereo unspecified)
[A] 11.5 µM

[Q] Query (compound): O=C(O)c1ccc(C2COc3ccc(Cl)cc3C2)cc1 (stereo unspecified) ; field requested: TGI
[A] > 100 µM

[Q] What value of measured TGI is listed for `CCOC(=O)C1=C(C)N(c2ccc(Cl)cc2)[C@]2(C#N)C(O)=C(Cl)C(Cl)=C(O)[C@]12C#N` ?
[A] > 100 µM

[Q] Given `O=C1C(=C([O-])c2ccccc2)C(=O)c2ccccc21.O=C1C(=C([O-])c2ccccc2)C(=O)c2ccccc21.[Fe+2]` , state its recorded TGI.
[A] > 100 µM

[Q] # TGI lookup, item `C#C[C@]1(O)CCCC2=CC(=O)CC[C@@]21C`
[A] > 100 µM
